SUBJECT OF TEST: human carbonic anhydrase I (human, UniProt P00915 1-261)
Sequence (P00915 whole entry): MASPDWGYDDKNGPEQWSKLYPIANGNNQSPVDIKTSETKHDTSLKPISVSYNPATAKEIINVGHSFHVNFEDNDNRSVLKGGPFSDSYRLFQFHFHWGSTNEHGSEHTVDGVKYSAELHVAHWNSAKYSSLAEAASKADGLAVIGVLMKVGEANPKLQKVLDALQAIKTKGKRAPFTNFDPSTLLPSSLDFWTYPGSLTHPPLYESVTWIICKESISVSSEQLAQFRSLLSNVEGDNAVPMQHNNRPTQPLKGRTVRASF
PROCEDURE TEXT: SPR
Primed or numbered codes have the meaning given here. Where no end group is shown, it is not given here. [ ]: non-standard residue; d: D form. The star is where a group is joined. 4‑CBS″ = 4-carboxybenzylsulfonamide on the N-terminus, O=C(O)c1ccc(CS(=O)(=O)*)cc1; 4‑CBS = 4-carboxybenzylsulfonamide, O=C(O)c1ccc(CS(=O)(=O)*)cc1
true if Kd is below 100 nM. false if not; exact matches included in false.

[[record]]
binder = "{4‑CBS″}-[dD][dA][dD][dV][dL]-NH2 [4-CBS-dadvl]"
label_class = "false"

[[record]]
binder = "{4‑CBS}-LKEYD [4-CBS-LKEYD]"
label_class = "true"

[[record]]
binder = "{4‑CBS″}-[dD][dV][dE][dV][dL]-NH2 [4-CBS-dvevl]"
label_class = "false"

[[record]]
binder = "{4‑CBS″}-[dD][dV][dD][dE][dY]-NH2 [4-CBS-dvdey]"
label_class = "true"

[[record]]
binder = "{4‑CBS}-[dD][dL][dD][dD][dW] [4-CBS-dlddw]"
label_class = "true"

[[record]]
binder = "{4‑CBS}-[dD][dV][dD][dV][dL] [4-CBS-dvdvl]"
label_class = "true"

[[record]]
binder = "{4‑CBS″}-[dD][dL][dE][dE][dY]-NH2 [4-CBS-dleey]"
label_class = "false"

[[record]]
binder = "{4‑CBS″}-[dD][dV][dD][dD][dL]-NH2 [4-CBS-dvddl]"
label_class = "false"

[[record]]
binder = "{4‑CBS″}-[dD][dV][dE][dY][dE]-NH2 [4-CBS-dveye]"
label_class = "false"


These data points were gathered from paper PMC4942345.
